- Test system: AncSZ
- ASSAY_NOTES: phosphorylation enrichment, bacterial display (enrichment ratio); higher = better substrate or ligand; peptides without Tyr show the background;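 note: 11-residue human phosphosite peptides and single-mutation variants displayed on the E. coli surface, counted by deep sequencing, each peptide's frequency after selection divided by its frequency in the unselected input library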;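 note: frequency after pTyr selection over input frequency; kinase dosed for 20-30% of maximal phosphorylation in three min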
# binarize phosphorylation enrichment: threshold 0.9 inclusive, high side true (1), low side false (0)

RRERLYGGGGG [FUS_Y526_P525L] ... false (0)
GYDHSYYFIAT [ESD_Y262] ... true (1)
YALAEYTEVKT [ALDH1A3_Y497] ... true (1)
RGVTHYILQTF [SLC39A4_Y359] ... true (1)
KDQPDYKFQPR [SOX9_Y172_H169Q_YF] ... false (0)

I'd appreciate it if you could say whether LDYNEYFRGLN [HPRT1_Y198_D201G] has phosphorylation enrichment at least equal to 0.9. true (1)

One more sequence: SKKVRYVVSKA [BARD1_Y156] false (0)

One more sequence: GHLYAYDWISI [BEST1_Y227] true (1)

One more sequence: FRASFYRKGGC [ALK_Y1283_YF] false (0)

One more sequence: AHPIIYDIIEA [PYKtide_D_2014] true (1)

One more sequence: QRASDYFSQQM [GBP6_Y333_A331S_YF] true (1)

One more sequence: GFILMYDITNK [RAB3C_Y110_E115K] true (1)

###

So I've got a bunch of sequences here, and I need their phosphorylation enrichment values.
- EXPERIMENTAL_TARGET: Jak2 (UniProt O60674)
- Sequence (O60674 whole entry, looked up): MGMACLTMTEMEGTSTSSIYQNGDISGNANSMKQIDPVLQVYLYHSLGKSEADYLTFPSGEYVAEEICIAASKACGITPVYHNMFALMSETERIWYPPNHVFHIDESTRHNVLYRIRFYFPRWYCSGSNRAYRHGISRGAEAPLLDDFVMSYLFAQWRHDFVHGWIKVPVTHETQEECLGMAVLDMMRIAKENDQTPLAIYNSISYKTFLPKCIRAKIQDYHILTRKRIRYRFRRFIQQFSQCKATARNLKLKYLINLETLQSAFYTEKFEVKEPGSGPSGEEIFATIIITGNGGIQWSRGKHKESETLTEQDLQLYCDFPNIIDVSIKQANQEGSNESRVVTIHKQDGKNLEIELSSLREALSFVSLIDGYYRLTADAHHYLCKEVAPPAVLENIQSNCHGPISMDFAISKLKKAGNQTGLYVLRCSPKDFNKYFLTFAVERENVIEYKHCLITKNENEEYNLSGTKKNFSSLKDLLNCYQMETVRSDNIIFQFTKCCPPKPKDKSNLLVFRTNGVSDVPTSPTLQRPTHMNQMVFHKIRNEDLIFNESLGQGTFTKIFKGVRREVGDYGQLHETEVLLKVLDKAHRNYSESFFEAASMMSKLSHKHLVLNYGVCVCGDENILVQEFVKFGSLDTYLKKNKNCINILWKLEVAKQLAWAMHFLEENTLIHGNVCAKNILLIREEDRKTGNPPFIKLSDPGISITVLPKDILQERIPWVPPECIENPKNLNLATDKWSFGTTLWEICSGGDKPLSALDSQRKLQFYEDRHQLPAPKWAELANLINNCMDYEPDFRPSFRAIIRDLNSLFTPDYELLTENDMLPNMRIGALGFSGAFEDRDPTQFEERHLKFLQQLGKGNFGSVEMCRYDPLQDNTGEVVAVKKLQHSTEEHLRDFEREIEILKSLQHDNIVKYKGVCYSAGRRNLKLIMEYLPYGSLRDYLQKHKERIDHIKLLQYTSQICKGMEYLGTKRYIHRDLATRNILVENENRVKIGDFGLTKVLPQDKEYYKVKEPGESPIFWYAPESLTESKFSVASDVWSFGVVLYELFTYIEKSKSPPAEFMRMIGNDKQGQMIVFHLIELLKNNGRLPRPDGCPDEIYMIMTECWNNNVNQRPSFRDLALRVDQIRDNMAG
- ASSAY_NOTES: phosphorylation enrichment, bacterial display (enrichment ratio); higher = better substrate or ligand; peptides without Tyr show the background
Answers are plain numbers.

RVDRDYVLKSA [HTATIP2_Y111] ... 0.75
LQPNNCQFCGG [CSF1R_Y969_Y969C] ... 1.05
DPLLTYRFPPN [LMNA_Y481_K486N] ... 0.768
LRYDSYSSYCN [SLC20A2_Y433] ... 0.865
PKKKQYTSIHH [APP_Y728_L723P] ... 0.85
DIDKIYIRTGI [PIK3CA_Y355_V356I] ... 1.06

Parameter requested: phosphorylation enrichment. Apply to each item below.
1. QLFGPYLRIHA [BSCL2_Y213_A212P_YF]
2. KTSGNYLAVTG [WDR19_Y28]
3. VAFVYYKSIGP [ADGRL4_Y302]
4. FETVKYFNNER [ABCB7_Y345_YF]
5. AKLVQYFMEHH [PTPN11_Y80_E76K_YF]
6. SYPHEYGSQEG [RBM10_Y48_R46H]
7. ISIFFYAKGQP [MPZ_Y82_H81Y_YF]

[1.35, 0.449, 1.3, 0.702, 0.63, 0.767, 1.43]

Parameter requested: phosphorylation enrichment. Apply to each item below.
1. GSERRYTREGG [PTPRN2_Y139_S140T]
2. ILIFHYAKGQP [MPZ_Y82_S78L]
3. SIVEDYRPPFF [ACVRL1_Y421_G416S_YF]

1: 0.463; 2: 1.01; 3: 0.85

Parameter requested: phosphorylation enrichment. Apply to each item below.
1. LKEIHYPPFTD [ALDH3B2_Y362_YF]
2. DDERGYRRVRC [GIGYF2_Y268_S273C]
3. EYQKKYSDADI [CKAP5_Y1860_K1857Q]
4. RLNCIYYKDQT [RS1_Y165_W163C]
5. EFKDAYTFAAD [BRDT_Y335_K336T_YF]
6. KASIMYPSSNC [CXCL11_Y52_N55S]
7. QADIIYVNTQL [MERTK_Y872_V870I]

1: 0.659; 2: 0.834; 3: 0.841; 4: 1.21; 5: 0.835; 6: 0.522; 7: 1.05

Parameter requested: phosphorylation enrichment. Apply to each item below.
1. GESQGYDIMEP [MSH2_Y863]
2. AVLSLYASGRN [ACTA1_Y145_T150N]

1. 0.827
2. 0.958

Parameter requested: phosphorylation enrichment. Apply to each item below.
1. ETCLAYREKRI [TEKT1_Y118]
2. SVVLPYEPPEV [TP53_Y220_V218L]
3. GKPENYRRLDI [VHL_Y175_V170G]
4. EEGEEYGGGGG [TUBA1A_Y451]
5. EVASVYESFQP [MAVS_Y92_Q93E_YF]

1. 0.693
2. 0.98
3. 0.539
4. 0.946
5. 1.65

Parameter requested: phosphorylation enrichment. Apply to each item below.
1. DPHECYAKVFN [ALB_Y394_D399N]
2. NLMPAYHKCIQ [CYP21A2_Y190_Y191H]
3. MRNDLYQTPLH [NFKB1_Y582]
4. KFDLMYAKLAF [TUBA1A_Y399_R402L]
5. YSTDYYRVGGH [NTRK2_Y707]
6. PEADKYRLPYA [FGG_Y300_T303P]
7. RFGKVYKGHLF [ROR2_Y488]

1: 0.847; 2: 0.969; 3: 0.693; 4: 0.811; 5: 8.96; 6: 1.33; 7: 0.803

Parameter requested: phosphorylation enrichment. Apply to each item below.
1. QLCVNYPGGYT [PROS1_Y259]
2. QKMADYSNKLH [PDPR_Y104_Y109H]
3. ALMGLYHGQVL [HADHA_Y343]
4. FSEVRYMKEPY [HIPK4_Y170_V171M]
5. LVSCTYQLARG [FGFR2_Y608]
6. YAGRDYSLDEF [MYOF_Y1705_G1701A]
7. GSRGKYFSGFR [ATM_Y332_S333F]

1: 0.999; 2: 0.974; 3: 0.596; 4: 0.781; 5: 0.983; 6: 1.37; 7: 0.885

Parameter requested: phosphorylation enrichment. Apply to each item below.
1. LNEWHYGGLTG [PGAM2_Y92_R90W]
2. EILLSYLRTGF [TGM1_Y365_YF]
3. SDLTDYLMKIL [ACTA1_Y190_R185S]
4. LKTNCYNNGKD [DNMT3B_Y404]
5. APTSGYREFVH [IL4R_Y575_Q576R]
6. NFRNTYVNANE [KCNH2_Y475_T473N]

[0.84, 0.981, 1.1, 1.24, 0.441, 0.577]
